Reference for the values: patent US20240116985A1

assay: Solubility in PBS; type: physicochemical; settings: Solubility (uM)
Overview of reported Solubility across a group of compounds:
Answer with a number only, understood to be in µM.

>>> numeric_result("CC(=O)N1CCC[C@]12CC=CCCCC1(CCCC=CCCCCCC[C@@](C)(C(=O)N[C@@H](Cc3ccsc3)C(=O)N[C@@H](Cc3csc4ccccc34)C(=O)N[C@H](CCC(N)=O)C(N)=O)NC(=O)[C@H](CC(C)C)NC(=O)[C@H](Cc3ccccc3)NC(=O)[C@H](C)NC(=O)[C@H](C)NC(=O)[C@H](CC(=O)O)NC(=O)[C@H](CC(=O)O)NC1=O)NC(=O)[C@H](CC(C)(C)C)NC(=O)[C@H](CC(=O)O)NC2=O (stereo partly shown) [I-1199]")
19
>>> numeric_result("CC[C@H](C)[C@@H]1NC(=O)[C@H](CC(=O)O)NC(=O)[C@]2(CC=CCCCC3(CCCC=CCCCCCC[C@@](C)(C(=O)N[C@@H](Cc4ccccc4)C(=O)N[C@@H](Cc4csc5ccccc45)C(=O)N[C@@H](CCC(N)=O)C(N)=O)NC(=O)[C@H](CCC(N)=O)NC(=O)[C@H](C(c4ccccc4)c4ccccc4)NC(=O)[C@H](C)NC(=O)[C@H](C)NC(=O)[C@H](CCC(=O)O)NC(=O)[C@H](CC(=O)O)NC3=O)NC1=O)CCCN2C(C)=O (stereo partly shown) [I-725]")
42
>>> numeric_result("CC(=O)N1CCC[C@]12CC=CCCCC1(CCCC=CCCCOC(=O)N3CC[C@@](C(=O)N[C@@H](Cc4ccccc4Cl)C(=O)N[C@@H](Cc4csc5ccccc45)C(=O)N[C@@H](CCC(N)=O)C(N)=O)(C3)NC(=O)[C@H](CC(C)C)NC(=O)[C@H](Cc3ccc(C(F)(F)F)cc3)NC(=O)[C@H](C)NC(=O)[C@H](C)NC(=O)[C@H](CC(=O)O)NC(=O)[C@H](CC(=O)O)NC1=O)NC(=O)[C@H](CC(C)(C)C)NC(=O)[C@H](CC(=O)O)NC2=O (stereo partly shown) [I-1123]")
12
>>> numeric_result("CC(=O)N1CCC[C@]12CC=CCCCC1(CCCC=CCCCOC(=O)N3CC[C@@](C(=O)N[C@@H](Cc4ccccc4Cl)C(=O)N[C@@H](Cc4csc5ccccc45)C(=O)N[C@@H](CCO)C(N)=O)(C3)NC(=O)[C@H](Cc3ccccc3)NC(=O)[C@H](Cc3ccccc3)NC(=O)[C@H](C)NC(=O)[C@H](C)NC(=O)[C@H](CN(CC(=O)O)CC(F)(F)F)NC(=O)[C@H](CC(=O)O)NC1=O)NC(=O)[C@H](CC(C)(C)C)NC(=O)[C@H](CC(=O)O)NC2=O (stereo partly shown) [I-992]")
12
>>> numeric_result("CC(=O)N1CCC[C@]12CC=CCCCC1(CCCC=CCCCCCC[C@@](C)(C(=O)N[C@@H](Cc3ccccc3Cl)C(=O)N[C@@H](Cc3csc4ccccc34)C(=O)N[C@@H](C(N)=O)[C@H](C)O)NC(=O)[C@H](CC(C)C)NC(=O)[C@H](Cc3ccccc3)NC(=O)[C@H](C)NC(=O)[C@H](C)NC(=O)[C@H](CC(=O)O)NC(=O)[C@H](CC(=O)O)NC1=O)NC(=O)[C@H](CC(C)(C)C)NC(=O)[C@H](CC(=O)O)NC2=O (stereo partly shown) [I-1097]")
20
>>> numeric_result("CC(=O)N1CCC[C@]12CC=CCCCC1(CCCC=CCCCOC(=O)N3CC[C@@](C(=O)N[C@@H](Cc4ccccc4Cl)C(=O)N[C@@H](Cc4csc5ccccc45)C(=O)N[C@H](C(N)=O)[C@@H](C)O)(C3)NC(=O)[C@H](CO)NC(=O)[C@H](Cc3ccccc3)NC(=O)[C@H](C)NC(=O)[C@H](C)NC(=O)[C@H](CC(=O)O)NC(=O)[C@H](CC(=O)O)NC1=O)NC(=O)[C@H](CC1CCCCC1)NC(=O)[C@H](CC(=O)O)NC2=O (stereo partly shown) [I-1135]")
39

Continue with the next compound.
Q) Param item = CC(=O)N1CCC[C@]12CC=CCCCC1(CCCC=CCCCOC(=O)N3CC[C@@](C(=O)N[C@@H](Cc4ccsc4)C(=O)N[C@@H](Cc4csc5ccccc45)C(=O)N[C@@H](Cc4c[nH]cn4)C(N)=O)(C3)NC(=O)[C@H](CC(N)=O)NC(=O)[C@H](Cc3ccccc3)NC(=O)[C@H](C)NC(=O)[C@H](C)NC(=O)[C@H](CCCNC(N)=O)NC(=O)[C@H](CC(=O)O)NC1=O)NC(=O)[C@H](CC(C)(C)C)NC(=O)[C@H](CC(=O)O)NC2=O (stereo partly shown) [I-841] ; retrieve measured Solubility.
A) 14
